Entry source: ChEMBL document CHEMBL3988442

I'd be grateful if you could share measured Percent Effect for these entries.
- Target: Chromo domain-containing protein 1 (Saccharomyces cerevisiae (strain ATCC 204508 / S288c) (Baker's yeast))
- Test summary: ScCHD-1 Enzyme Inhibition Assay
- Assay type: functional
- Design: scale not given: in the data most compounds retested in dose-response had high values
- Assay conditions: 30 µM
The reply should be a number in %, with the unit left off.

Quickly give me recorded Percent Effect for Cc1nnc(N2CCOC(Cn3cccn3)C2)c(C#N)c1C (configuration not stated)
-0.172

Quickly give me recorded Percent Effect for `CCN1CCN(C2CCN(Cc3cc(C)on3)CC2)C1=O`
-13.6

Quickly give me recorded Percent Effect for `Cc1ccc(-c2ncc(C(=O)NCCS(N)(=O)=O)s2)c(C)c1`
-4.18

Quickly give me recorded Percent Effect for `O=C(NCCNc1ncccn1)C1CCN(c2ncccn2)CC1`
1.05

Quickly give me recorded Percent Effect for O=C1C(NS(=O)(=O)c2cc(F)cc(F)c2)CCN1Cc1ccccc1 (configuration not stated)
-7.02

Quickly give me recorded Percent Effect for `COc1ccc(C(=O)N2CCC(Nc3cccnn3)CC2)c(OC)c1`
-16

Quickly give me recorded Percent Effect for `CNc1oc(-c2cc(S(=O)(=O)N3CCCCCC3)c(C)o2)nc1C#N`
-7.07

Quickly give me recorded Percent Effect for `COc1ccccc1S(=O)(=O)N1CCC(Oc2cccnn2)CC1`
-1.62

Quickly give me recorded Percent Effect for O=C(C1CCC1)N1CCC2(COCc3cnc(N4CCOCC4)nc32)C1 (configuration not stated)
-9.27

Quickly give me recorded Percent Effect for `Cc1cc(C[C@@H]2CCC[C@H]2NCc2ccccc2C(F)(F)F)on1`
-10.5

Quickly give me recorded Percent Effect for `NC(=O)C1CCN(c2nc3nccc(-c4ccccn4)c3c(=O)[nH]2)CC1`
7.17

Quickly give me recorded Percent Effect for `CCCNC(=O)c1cnc(N(C)C)nc1COC`
-3.99

Quickly give me recorded Percent Effect for `CCCc1nnsc1C(=O)NCC1CCN(c2ccccn2)CC1`
-6.53

Quickly give me recorded Percent Effect for `O=C(NCCn1ccnc1)c1cccc(F)c1`
-6.88

Quickly give me recorded Percent Effect for `Cc1ccc2c(n1)N(CCn1cccn1)CCN(C(=O)CC1CC1)C2`
-7.62

Quickly give me recorded Percent Effect for O=C(c1ccco1)N1CCCC(c2cc(C(F)F)n3ncnc3n2)C1 (configuration not stated)
3.66

Quickly give me recorded Percent Effect for `Cc1ccccc1NS(=O)(=O)c1cc2c(c(C(=O)O)c1)OCCO2`
3.8

Quickly give me recorded Percent Effect for `CCS(=O)(=O)N1CC[C@]2(C[C@@H](OCC3CC3)CO2)C1`
-6.86

Quickly give me recorded Percent Effect for `O=S(=O)(NCC1CCN(c2ccccn2)CC1)c1ccccc1F`
-12.6

Quickly give me recorded Percent Effect for Cn1c(Cn2cccn2)nnc1C1CCCN(c2ccncc2)C1 (configuration not stated)
-1.63

Quickly give me recorded Percent Effect for `O=C(CSc1ccc2c(c1)OCCO2)NS(=O)(=O)C1CCCCC1`
-0.962

Quickly give me recorded Percent Effect for CC(C)S(=O)(=O)NCC1CCCN(C(=O)c2cccnc2)C1 (configuration not stated)
-3.28

Quickly give me recorded Percent Effect for `COC1CCN(C(=O)Cc2csc(-c3ncccn3)n2)CC1`
-5.39

Quickly give me recorded Percent Effect for `Cc1csc(N2CCCN(Cc3noc(C)n3)CC2)n1`
-16

Quickly give me recorded Percent Effect for C=Cc1ccc(C(=O)N2CCCC(Nc3ccc(OC)cc3)C2)cc1 (configuration not stated)
-8.46

Quickly give me recorded Percent Effect for `COCCOc1ccc(NC(=O)N(C)Cc2ccsc2)cn1`
-6.06

Quickly give me recorded Percent Effect for Cc1ccc(C2CCCCCN2Cc2cn(C)nc2C)s1 (configuration not stated)
-7.58
